- assay.protocol: refractive index (Na D-line) (dimensionless)
- condition.details: 298.15 K; 101.33 kPa; Liquid; Standard Abbe refractometry
This listing pairs compounds with measured refractive index.
// response body must contain only the number

// solved cases for refractive index follow
C1CCCCC1 : 1.42403
CCCCCCCCn1cc[n+](C)c1.O=S(=O)([N-]S(=O)(=O)C(F)(F)F)C(F)(F)F : 1.43331
c1ccsc1 : 1.52581

Shift focus to the following entry.
Req: Give its refractive index value. Item: CCCCCCCCCCCC
Resp: 1.42011

Data provenance is the NIST ThermoML archive (doi:10.1016/j.jct.2007.06.016).
